Data provenance: patent US12594267B2

# assayInfo: PK after subcutaneous administration of solutions in dogs
# Format: in vivo, Beagle dog
# particulars: male, beagle, dog, plasma, sc, 12 mg/kg, dog mean, n=3; 24.0 h; SC 12 mg/kg, 400 mg/mL in 15% water/85% PEG 300
measurementType: concentration at 24 h

Per the records, this compound ( CC(C)(C#Cc1ccc(-c2ccc(Cl)c3c(NS(C)(=O)=O)nn(CC(F)(F)F)c23)c([C@H](Cc2cc(F)cc(F)c2)NC(=O)Cn2nc(C(F)(F)F)c3c2C(F)(F)[C@@H]2C[C@H]32)n1)S(C)(=O)=O ) has concentration at 24 h equal to 21.5 nM

====

# assayInfo: PK after subcutaneous administration of solutions in rats
# Format: in vivo, Wistar Han rat
# particulars: male, Wistar Han, rat, plasma, sc, 50 mg/kg, rat #2; 96 h; SC 50 mg/kg, 300 mg/mL in 15% water/85% PEG 300
measurementType: concentration at 96 h (nM)
Just the number in nM, nothing appended.

Per the records, this molecule ( CC(C)(C#Cc1ccc(-c2ccc(Cl)c3c(NS(C)(=O)=O)nn(CC(F)(F)F)c23)c([C@H](Cc2cc(F)cc(F)c2)NC(=O)Cn2nc(C(F)(F)F)c3c2C(F)(F)[C@@H]2C[C@H]32)n1)S(C)(=O)=O ) has concentration at 96 h equal to 76.8

====

# assayInfo: Plasma PK after single oral administration in solution, dog
# Type: in vivo, Beagle Dog
# particulars: male, beagle, plasma; dog; single oral 4.0 mg/kg; solution in 5% ethanol/20% propylene glycol/45% PEG 300/30% 0.01 N HCl; mean ± SD, n=3
measurementType: Cmax (µM)
Just the number in µM, nothing appended.

Per the records, this molecule ( CC(C)(C#Cc1ccc(-c2ccc(Cl)c3c(NS(C)(=O)=O)nn(CC(F)(F)F)c23)c([C@H](Cc2cc(F)cc(F)c2)NC(=O)Cn2nc(C(F)(F)F)c3c2C(F)(F)[C@@H]2C[C@H]32)n1)S(C)(=O)=O [Formula (Ia)] ) has Cmax equal to 471

====

# assayInfo: PK after subcutaneous administration of solutions in dogs
# Type: in vivo, Beagle dog
# particulars: male, beagle, dog, plasma, sc, 12 mg/kg, dog #2; 336 h; SC 12 mg/kg, 400 mg/mL in 15% water/85% PEG 300
measurementType: concentration at 336 h (nM)
Just the number in nM, nothing appended.

Per the records, this molecule ( CC(C)(C#Cc1ccc(-c2ccc(Cl)c3c(NS(C)(=O)=O)nn(CC(F)(F)F)c23)c([C@H](Cc2cc(F)cc(F)c2)NC(=O)Cn2nc(C(F)(F)F)c3c2C(F)(F)[C@@H]2C[C@H]32)n1)S(C)(=O)=O ) has concentration at 336 h equal to 64.7

====

# assayInfo: PK after subcutaneous administration of solutions in rats
# Format: in vivo, Wistar Han rat
# particulars: Wistar Han, rat, plasma, sc, 50 mg/kg, rat; SC 50 mg/kg; 300 mg/mL solution (w/w %: 21.97 water, 47.05 PEG 300, 25.21 Formula (Ia), 1.08 NaOH, 4.69 poloxamer 188); mean ± SD, n=3; read-out: C98d
measurementType: concentration at 98 d (nM)
Just the number in nM, nothing appended.

Per the records, this molecule ( CC(C)(C#Cc1ccc(-c2ccc(Cl)c3c(NS(C)(=O)=O)nn(CC(F)(F)F)c23)c([C@H](Cc2cc(F)cc(F)c2)NC(=O)Cn2nc(C(F)(F)F)c3c2C(F)(F)[C@@H]2C[C@H]32)n1)S(C)(=O)=O ) has concentration at 98 d equal to 51.3

====

# assayInfo: PK after subcutaneous administration of solutions in dogs
# Type: in vivo, Beagle dog
# particulars: male, beagle, dog, plasma, sc, 12 mg/kg, dog mean, n=3; 672 h; SC 12 mg/kg, 400 mg/mL in 15% water/85% PEG 300
measurementType: concentration at 672 h
Could you give the number and then its unit, please?

Per the records, this compound ( CC(C)(C#Cc1ccc(-c2ccc(Cl)c3c(NS(C)(=O)=O)nn(CC(F)(F)F)c23)c([C@H](Cc2cc(F)cc(F)c2)NC(=O)Cn2nc(C(F)(F)F)c3c2C(F)(F)[C@@H]2C[C@H]32)n1)S(C)(=O)=O ) has concentration at 672 h equal to 77.2 nM

====

# assayInfo: PK after subcutaneous administration of solutions in dogs
# Assay type: in vivo, Beagle dog
# particulars: beagle, dog, plasma, sc, 6 mg/kg, dog; SC 6 mg/kg; 300 mg/mL solution (w/w %: 21.97 water, 47.05 PEG 300, 25.21 Formula (Ia), 1.08 NaOH, 4.69 poloxamer 188); mean ± SD, n=3
measurementType: Cmax

Per the records, this compound ( CC(C)(C#Cc1ccc(-c2ccc(Cl)c3c(NS(C)(=O)=O)nn(CC(F)(F)F)c23)c([C@H](Cc2cc(F)cc(F)c2)NC(=O)Cn2nc(C(F)(F)F)c3c2C(F)(F)[C@@H]2C[C@H]32)n1)S(C)(=O)=O [Formula (Ia)] ) has Cmax equal to 69 nM

====

# System: NRTI-resistant viruses
# Type: cell-based, HIV-1
# particulars: K65R; Mutant/WT (LAI) EC50 ratio; MT-2 cells; mean ± s.d. of three experiments
measurementType: EC50 Fold-Change
Output spec: single numeric token, no unit.

Examples with answers:
compound	targetOrTestSystem	testResult
COc1cc2c(cc1Cc1cccc(Cl)c1F)c(=O)c(C(=O)O)cn2[C@H](CO)C(C)C [EVG, elvitegravir]	NRTI-resistant viruses	0.8
Nc1nc(=O)n([C@@H]2CS[C@H](CO)O2)cc1F [FTC, emtricitabine]	NRTI-resistant viruses	12.8
COC(=O)N[C@H](C(=O)N[C@@H](Cc1ccccc1)[C@@H](O)CN(Cc1ccc(-c2ccccn2)cc1)NC(=O)[C@@H](NC(=O)OC)C(C)(C)C)C(C)(C)C [ATV, atazanavir]	NRTI-resistant viruses	0.9
C[C@H](Cn1cnc2c(N)ncnc21)OCP(=O)(O)O [TFV, tenofovir]	NRTI-resistant viruses	2.4

// next entry
Entry CC(C)(C#Cc1ccc(-c2ccc(Cl)c3c(NS(C)(=O)=O)nn(CC(F)(F)F)c23)c([C@H](Cc2cc(F)cc(F)c2)NC(=O)Cn2nc(C(F)(F)F)c3c2C(F)(F)[C@@H]2C[C@H]32)n1)S(C)(=O)=O [Formula (Ia)] : EC50 Fold-Change on NRTI-resistant viruses = 0.7

====

# assayInfo: PK after subcutaneous administration of solutions in rats
# Assay type: in vivo, Wistar Han rat
# particulars: male, Wistar Han, rat, plasma, sc, 50 mg/kg, rat #3; 48 h; SC 50 mg/kg, 300 mg/mL in 15% water/85% PEG 300
measurementType: concentration at 48 h

Per the records, this compound ( CC(C)(C#Cc1ccc(-c2ccc(Cl)c3c(NS(C)(=O)=O)nn(CC(F)(F)F)c23)c([C@H](Cc2cc(F)cc(F)c2)NC(=O)Cn2nc(C(F)(F)F)c3c2C(F)(F)[C@@H]2C[C@H]32)n1)S(C)(=O)=O ) has concentration at 48 h equal to 70.8 nM

====

# assayInfo: PK after subcutaneous administration of solutions in dogs
# Type: in vivo, Beagle dog
# particulars: male, beagle, dog, plasma, sc, 12 mg/kg, dog #2; 8.0 h; SC 12 mg/kg, 400 mg/mL in 15% water/85% PEG 300
measurementType: concentration at 8 h (nM)
Just the number in nM, nothing appended.

Per the records, this compound ( CC(C)(C#Cc1ccc(-c2ccc(Cl)c3c(NS(C)(=O)=O)nn(CC(F)(F)F)c23)c([C@H](Cc2cc(F)cc(F)c2)NC(=O)Cn2nc(C(F)(F)F)c3c2C(F)(F)[C@@H]2C[C@H]32)n1)S(C)(=O)=O [Formula (Ia)] ) has concentration at 8 h equal to 15.5

====

# assayInfo: PK after subcutaneous administration of solutions in rats
# Format: in vivo, Wistar Han rat
# particulars: male, Wistar Han, rat, plasma, sc, 50 mg/kg, rat #3; 72 h; SC 50 mg/kg, 300 mg/mL in 15% water/85% PEG 300
# Procedure: Formulations containing the compound of Formula (Ia) were prepared as aqueous solutions or oral formulations and administered subcutaneously to rats, dogs, cynomolgus monkey, and/or rhesus monkey. A solution of the compound of Formula (Ia) in 10% ethanol, 13% water, and 77% PEG 200 (400 mg/mL) was prepared. The solution was administered subcutaneously to dogs at a dose of 12 mg/kg and rats at a dose of 50 mg/kg and the pharmacokinetic (PK) profile was determined. […]
measurementType: concentration at 72 h
Could you give the number and then its unit, please?

Per the records, this compound ( CC(C)(C#Cc1ccc(-c2ccc(Cl)c3c(NS(C)(=O)=O)nn(CC(F)(F)F)c23)c([C@H](Cc2cc(F)cc(F)c2)NC(=O)Cn2nc(C(F)(F)F)c3c2C(F)(F)[C@@H]2C[C@H]32)n1)S(C)(=O)=O ) has concentration at 72 h equal to 70.1 nM
